- ASSAY_OVERVIEW: Estimation of the solubility of a polymorph in various solvents
- Type: physicochemical
- TEST_CONTEXT: organic solvent or mixture, thermodynamic from solid; Chloroform, 23° C.; read-out: Solubility
QUANTITY_MEASURED: solubility

Answer with reported solubility of `Cc1[nH]c(/C=C2\C(=O)Nc3ccc(F)cc32)c(C)c1C(=O)NCCN1CCCC1`
< 110 µg/mL

* * *

- ASSAY_OVERVIEW: Estimation of the solubility of a polymorph in various solvents
- Type: physicochemical
- TEST_CONTEXT: organic solvent or mixture, thermodynamic from solid; Isopropanol, 23° C.; read-out: Solubility
QUANTITY_MEASURED: solubility

Tell me solubility reported for `Cc1[nH]c(/C=C2\C(=O)Nc3ccc(F)cc32)c(C)c1C(=O)NCCN1CCCC1`
< 140 µg/mL

* * *

- ASSAY_OVERVIEW: Estimation of the solubility of a polymorph in various solvents
- Format: physicochemical
- TEST_CONTEXT: organic solvent or mixture, thermodynamic from solid; THF, 23° C.; read-out: Solubility
QUANTITY_MEASURED: solubility

For the compound Cc1[nH]c(/C=C2\C(=O)Nc3ccc(F)cc32)c(C)c1C(=O)NCCN1CCCC1 [polymorph I] , give its reported solubility.
320 to 400 µg/mL

* * *

- ASSAY_OVERVIEW: Estimation of the solubility of a polymorph in various solvents
- Format: physicochemical
- TEST_CONTEXT: organic solvent or mixture, thermodynamic from solid; Acetonitrile, 23° C.; read-out: Solubility
QUANTITY_MEASURED: solubility

Kindly indicate its recorded solubility. Item: `Cc1[nH]c(/C=C2\C(=O)Nc3ccc(F)cc32)c(C)c1C(=O)NCCN1CCCC1`
< 80 µg/mL

* * *

- ASSAY_OVERVIEW: Estimation of the solubility of a polymorph in various solvents
- Format: physicochemical
- TEST_CONTEXT: organic solvent or mixture, thermodynamic from solid; CH2Cl2, 23° C.; read-out: Solubility
QUANTITY_MEASURED: solubility

Identify the reported solubility for the following entry. `Cc1[nH]c(/C=C2\C(=O)Nc3ccc(F)cc32)c(C)c1C(=O)NCCN1CCCC1`
< 120 µg/mL

* * *

- ASSAY_OVERVIEW: Estimation of the solubility of a polymorph in various solvents
- Format: physicochemical
- TEST_CONTEXT: DMF and pH<=2 water (one solvent per vial), organic solvent or mixture, thermodynamic from solid; DMSO, DMF and pH<=2 water; polymorph I, room temperature; read-out: Solubility (Group III solvents)
QUANTITY_MEASURED: solubility

Name the recorded solubility of the compound listed here: `Cc1[nH]c(/C=C2\C(=O)Nc3ccc(F)cc32)c(C)c1C(=O)NCCN1CCCC1`
> 1000 µg/mL

* * *

- ASSAY_OVERVIEW: Estimation of the solubility of a polymorph in various solvents
- Type: physicochemical
- TEST_CONTEXT: organic solvent or mixture, thermodynamic from solid; Ethyl acetate, 23° C.; read-out: Solubility
QUANTITY_MEASURED: solubility

Determine from records and report solubility for `Cc1[nH]c(/C=C2\C(=O)Nc3ccc(F)cc32)c(C)c1C(=O)NCCN1CCCC1`
< 280 µg/mL

* * *

- ASSAY_OVERVIEW: Estimation of the solubility of a polymorph in various solvents
- Assay type: physicochemical
- TEST_CONTEXT: aqueous buffer, thermodynamic from solid; Water (pH = 2), 23° C.; read-out: Solubility
- Experimental: Estimation of the Solubility of a Polymorph in Various Solvents. Approximately 1.5 mg of the polymorph, was transferred to 10 mL glass vials (tared) and was weighed (accurate to 0.1 mg). […] If a solid remained after the addition of 10 mL solvent, the solubility was expressed as less than the weight divided by the final volume. If the solid was completely dissolved after the first addition of solvent, the solubility was expressed as greater than the weight divided by the solvent volume. […]
QUANTITY_MEASURED: solubility
Answer format: value, then unit.

Please look at this compound and report its solubility: `Cc1[nH]c(/C=C2\C(=O)Nc3ccc(F)cc32)c(C)c1C(=O)NCCN1CCCC1`
3110 µg/mL
